target: Mitogen-activated protein kinase 1 (Homo sapiens); details: Compound concentration 20.0 uM, Protein concentration 2.0 uM, Result type QC Liability
Description: Thermal Shift Assay. Domain: start/stop: M1-S360
Would you mind telling me the reported ΔTm of each entry?
The response must be a number in °C with no trailing unit.

Ask: Complete the entry with ΔTm for COc1ccc(CSc2nnc(-c3ccc4ncsc4c3)o2)cc1C(F)(F)F
Reply: -8.68

Ask: Complete the entry with ΔTm for COc1ccc(CC[C@@H](OC(=O)[C@H]2CCCCN2C(=O)[C@@H](c2cc(OC)c(OC)c(OC)c2)C2CCCCC2)c2cccc(OCCN3CCOCC3)c2)cc1OC
Reply: -0.42

Ask: Complete the entry with ΔTm for CC(C)(O)[C@H]1CC[C@H](Nc2ccc3ncc(-c4cccc(C(F)(F)F)c4)n3n2)CC1
Reply: 0.62
